Molecular target: T1, ExoG-H140A/N176A (Homo sapiens, UniProt Q9Y2C4 42-368, H140A;N176A)
T1 sequence: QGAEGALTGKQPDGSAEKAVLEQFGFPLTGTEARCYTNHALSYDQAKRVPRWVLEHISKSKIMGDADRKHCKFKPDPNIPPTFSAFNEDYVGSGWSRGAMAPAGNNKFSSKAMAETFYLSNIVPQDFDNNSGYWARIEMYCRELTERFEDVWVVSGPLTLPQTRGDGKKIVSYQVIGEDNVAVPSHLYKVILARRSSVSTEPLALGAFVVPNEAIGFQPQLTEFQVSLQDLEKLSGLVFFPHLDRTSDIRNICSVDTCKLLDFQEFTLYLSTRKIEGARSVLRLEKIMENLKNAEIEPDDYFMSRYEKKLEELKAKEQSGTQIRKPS
Assay: fluorescence polarization; 2.5 mM Mg2+; FP: 10 nM FAM substrate, 10 mM HEPES pH 7.4, 150 mM NaCl, 2.5 mM MgCl2; temperature not stated
Conditions: protein: recombinant; tags: N-terminal His; chain copies: 2; label: 3'-FAM strand 1; 5'-biotin strand 2; 20-bp duplex, 26-nt 3' overhang on strand 2
Quantity Name: Kd

Example entries begin here.
Need Kd of RNA/DNA (DNA:RNA, strand 1 RNA with 5'-phosphate; strand 2 DNA) RNA: GCUUAACGCUGACUCGCUAC DNA: GTAGCGAGTCAGCGTTAAGCACTATCATAGCCATCTGCCATTACTG , thanks.
120 nM

Need Kd of R2-DNA/DNA (mixed, strand 1 nt 1-2 (GC) are ribonucleotides, rest DNA; 5'-phosphate on strand 1) DNA 1: GCTTAACGCTGACTCGCTAC DNA 2: GTAGCGAGTCAGCGTTAAGCACTATCATAGCCATCTGCCATTACTG , thanks.
930 nM

Would you kindly look at the next entry?
Need Kd of DNA/DNA (dsDNA, 5'-phosphate on strand 1) DNA 1: GCTTAACGCTGACTCGCTAC DNA 2: GTAGCGAGTCAGCGTTAAGCACTATCATAGCCATCTGCCATTACTG , thanks.
950 nM
